Assay: amyloid nucleation score (Sup35N fusion, yeast selection) (log enrichment); library NNK2; higher = more nucleation; inactive = no reads after selection;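 also: zero at mode of non-aggregating sequences after 7 days selection at 30°C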

[
  {
    "seq.string": "ILLQLSIKRSVASSWLHNGR",
    "amyloid nucleation score": 3.61
  },
  {
    "seq.string": "NWMCMRCGVFVVLAVCLFWS",
    "amyloid nucleation score": 3.42
  },
  {
    "seq.string": "EGTIWRVSW",
    "amyloid nucleation score": 0.392
  },
  {
    "seq.string": "DIGRLTLHGRVSADG",
    "amyloid nucleation score": 0.748
  }
]

###

Experiment: amyloid nucleation score (Sup35N fusion, yeast selection) (log enrichment); library NNK1; higher = more nucleation; inactive = no reads after selection
Tick True if amyloid nucleation score is 0.04 or greater. Tick False if amyloid nucleation score is less than 0.04.

[
  {
    "substance": "YNTCECFSFLTCKWLNKMDG",
    "class.name": "True"
  },
  {
    "substance": "LVVIVTPWKYSEP",
    "class.name": "True"
  },
  {
    "substance": "AERVCTFIL",
    "class.name": "False"
  },
  {
    "substance": "WHPRSLVPPTRL",
    "class.name": "True"
  },
  {
    "substance": "QRNHWLYGVTLMPCSHICIL",
    "class.name": "True"
  },
  {
    "substance": "SMRCKSYGCC",
    "class.name": "True"
  },
  {
    "substance": "TSVSKLQHWIYFTFY",
    "class.name": "False"
  },
  {
    "substance": "PRELEKFTLQKSGLHPWISL",
    "class.name": "False"
  },
  {
    "substance": "LFSWICEN",
    "class.name": "True"
  },
  {
    "substance": "WIPGRLLSAVKVGSNSLVF",
    "class.name": "False"
  },
  {
    "substance": "PWSPTVIRPVFSEKGQFSQL",
    "class.name": "False"
  },
  {
    "substance": "FCRRGSWVEPLLTCRYAMEA",
    "class.name": "False"
  },
  {
    "substance": "SVGMVLFLGCGLLLFRFLCG",
    "class.name": "False"
  },
  {
    "substance": "WENTSRKYVAANDCARMRLG",
    "class.name": "False"
  },
  {
    "substance": "ITYINLSSSYKIPRPTHMRI",
    "class.name": "True"
  },
  {
    "substance": "RSGIILLVGVS",
    "class.name": "False"
  },
  {
    "substance": "SYHNLCGSESGQVVNNQDRM",
    "class.name": "False"
  },
  {
    "substance": "AGRTILKIILQVLALLAPYK",
    "class.name": "False"
  },
  {
    "substance": "MLRMQKIGLFSLGMSC",
    "class.name": "False"
  },
  {
    "substance": "HSFSFCCSSYSCNLVGIELN",
    "class.name": "True"
  },
  {
    "substance": "VNGYFAASDECFWCRSAGPN",
    "class.name": "True"
  },
  {
    "substance": "IELPRFYILVNFYGTLSLSL",
    "class.name": "True"
  },
  {
    "substance": "RDTNKSIQ",
    "class.name": "True"
  },
  {
    "substance": "RVSFQIVTVGWC",
    "class.name": "False"
  },
  {
    "substance": "YYSGGFIMVVHLWSVELRFR",
    "class.name": "True"
  },
  {
    "substance": "YADRFRASASPNMCDRCSLW",
    "class.name": "True"
  },
  {
    "substance": "ELRCLQVINGLASLSASVWW",
    "class.name": "True"
  },
  {
    "substance": "NKLAHSNVDKAKLRDNPQAG",
    "class.name": "False"
  },
  {
    "substance": "KCDRHLKSYWSKELHYYYNF",
    "class.name": "False"
  },
  {
    "substance": "CLKFSIFDGE",
    "class.name": "True"
  },
  {
    "substance": "LRTISNVDLLSVS",
    "class.name": "True"
  },
  {
    "substance": "WCDGYVMFLDTNCIRINHIL",
    "class.name": "False"
  },
  {
    "substance": "LGFAFQNVTKALNLTFAYGS",
    "class.name": "True"
  },
  {
    "substance": "TSHPGRCRGYASRASSEVFR",
    "class.name": "False"
  },
  {
    "substance": "NIFWST",
    "class.name": "True"
  },
  {
    "substance": "KQNNGFGWEYEAGGLHRKGA",
    "class.name": "False"
  },
  {
    "substance": "FWNFRVIC",
    "class.name": "True"
  },
  {
    "substance": "PRCSMRLLGYTPIYDGKS",
    "class.name": "False"
  },
  {
    "substance": "LNGVNLRGFTRWLVGCGDVD",
    "class.name": "True"
  },
  {
    "substance": "YGCDGDVFRLIVWDVIAPSE",
    "class.name": "True"
  },
  {
    "substance": "CLFLWVTSVL",
    "class.name": "True"
  },
  {
    "substance": "SHRSRGLANRSCDGVPTVRR",
    "class.name": "True"
  },
  {
    "substance": "SGKYAFLFLVYCTGVLMKCW",
    "class.name": "False"
  },
  {
    "substance": "VGGGSRWDIRDNSNQSIIPM",
    "class.name": "False"
  },
  {
    "substance": "LQFLSGYNC",
    "class.name": "True"
  },
  {
    "substance": "MKFFRRFYREYF",
    "class.name": "False"
  },
  {
    "substance": "ARTDWFLNSRSSDYAIGFPY",
    "class.name": "False"
  },
  {
    "substance": "LYIRSIACGSSLLFLAVLNC",
    "class.name": "False"
  },
  {
    "substance": "YLLRVCAAMMFSKLCNG",
    "class.name": "True"
  },
  {
    "substance": "IIIRCKSVVA",
    "class.name": "False"
  },
  {
    "substance": "YVRWMSLAPSVQWH",
    "class.name": "True"
  },
  {
    "substance": "FRSLSSGIFGACWWYMFYSM",
    "class.name": "True"
  },
  {
    "substance": "LTGGVDHC",
    "class.name": "True"
  },
  {
    "substance": "DVSPLVFVC",
    "class.name": "False"
  },
  {
    "substance": "VFVVNTTESWHNLALFWSSR",
    "class.name": "True"
  },
  {
    "substance": "WGTVYVPV",
    "class.name": "True"
  },
  {
    "substance": "HQFSVHIPCCYSVPGNLYGW",
    "class.name": "True"
  },
  {
    "substance": "MQGDRQDGLYNKGDYPQFIF",
    "class.name": "False"
  },
  {
    "substance": "LLFYYLHIFMFSDDRVM",
    "class.name": "True"
  },
  {
    "substance": "RLRSMAAP",
    "class.name": "True"
  }
]

###

Test: amyloid nucleation score (Sup35N fusion, yeast selection) (log enrichment); library NNK1; higher = more nucleation; inactive = no reads after selection

[
  {
    "substance": "SSSKGSMENYISYRSL",
    "amyloid nucleation score": -0.703
  },
  {
    "substance": "AHSGMRLL",
    "amyloid nucleation score": 0.569
  },
  {
    "substance": "EVRTEMIHCNLLTMRFCVLA",
    "amyloid nucleation score": 0.047
  },
  {
    "substance": "TMYSVYRFVGCKKSFMVRKG",
    "amyloid nucleation score": 0.454
  },
  {
    "substance": "ARLENVTHFRFLQTNLGYIE",
    "amyloid nucleation score": 0.082
  },
  {
    "substance": "DFLNWWCRCVTFNSGRSGFV",
    "amyloid nucleation score": 0.392
  },
  {
    "substance": "AIFVCNH",
    "amyloid nucleation score": 0.229
  },
  {
    "substance": "IILYVLANFIMWWREVFNPK",
    "amyloid nucleation score": 0.218
  },
  {
    "substance": "VTKLNMILMVGTVYGSNIGV",
    "amyloid nucleation score": 6.78
  },
  {
    "substance": "WLLIRKGGVRFKIQYRHQHS",
    "amyloid nucleation score": 1.73
  },
  {
    "substance": "GGWDAGGGHAIRRIVECMVR",
    "amyloid nucleation score": 0.601
  },
  {
    "substance": "FDMCSGISGD",
    "amyloid nucleation score": 0.839
  },
  {
    "substance": "YSQYVVTSFTSLREVS",
    "amyloid nucleation score": -0.332
  },
  {
    "substance": "TGASLLVAHRTYSEIILRCD",
    "amyloid nucleation score": 0.606
  },
  {
    "substance": "TVITFRLAT",
    "amyloid nucleation score": 1.69
  },
  {
    "substance": "DRRFFSSV",
    "amyloid nucleation score": -1.36
  }
]
